Where do the numbers come from? From patent US9376449B2.

- experimental-target: human MT1 receptor (Homo sapiens, UniProt P48039)
- Sequence (P48039 whole entry): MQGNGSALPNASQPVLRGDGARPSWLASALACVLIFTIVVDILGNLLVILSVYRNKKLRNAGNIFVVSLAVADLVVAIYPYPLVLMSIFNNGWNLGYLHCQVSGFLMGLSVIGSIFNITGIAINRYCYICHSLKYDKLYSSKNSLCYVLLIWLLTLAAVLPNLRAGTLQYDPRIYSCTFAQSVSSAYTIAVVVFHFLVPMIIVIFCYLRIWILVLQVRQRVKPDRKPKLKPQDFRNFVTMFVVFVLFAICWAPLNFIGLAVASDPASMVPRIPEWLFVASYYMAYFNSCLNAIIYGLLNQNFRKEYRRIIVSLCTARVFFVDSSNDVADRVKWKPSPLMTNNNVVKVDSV
- assay-remarks: Activation of human MT1 receptor in receptor-expressing HEK293 cells (intracellular Ca2+, FLIPR)
- Format: cell-based
- condition-set: HEK293; maximum reaction by ramelteon taken as 100%, solvent only 0%; read-out: MT1 Emax (%)
# Emax listing for each entry below
measured-parameter: Emax (%)

- molecule: "CNC(=O)c1[nH]c2cc(F)c(OC)cc2c1CCNC(=O)C(F)F [Ex 15]"
  experimental-target: "human MT1 receptor (Homo sapiens, UniProt P48039)"
  units-of-measure: "%"
  value-observed: 104
- molecule: "CNC(=O)NCCc1c(C(=O)NC)[nH]c2ccc(OC)cc12 [Ex 8]"
  experimental-target: "human MT1 receptor (Homo sapiens, UniProt P48039)"
  units-of-measure: "%"
  value-observed: 124
- molecule: "CNC(=O)c1[nH]c2ccc(OC)nc2c1CCNC(=O)C(F)F [Ex 48]"
  experimental-target: "human MT1 receptor (Homo sapiens, UniProt P48039)"
  units-of-measure: "%"
  value-observed: 122

---

- assay-remarks: CNS penetration: CSF to plasma unbound concentration ratio in rat
- Type: in vivo
- condition-set: CSF and plasma (unbound), iv, 10 minutes after the intravenous administration
- Procedure: Test Example 4 Test for Evaluating CNS Penetration (1) Measurement of Unbound Fraction (fp) in Rat Plasma A test compound (100 μg/mL, 50% acetonitrile solution) at 1% (v/v) with respect to the amount of the plasma was added to rat plasma, and dispensed to a sample for a supernatant and a sample for the plasma. […] The unbound fraction in the plasma was calculated by the following equation. […]

- molecule: "CCC(=O)NCC[C@@H]1CCc2ccc3c(c21)CCO3 [Ramelteon, reference compound]"
  Kp uu at 10 min: "> 1"

---

- experimental-target: human MT2 receptor (Homo sapiens, UniProt P49286)
- Sequence (P49286 whole entry): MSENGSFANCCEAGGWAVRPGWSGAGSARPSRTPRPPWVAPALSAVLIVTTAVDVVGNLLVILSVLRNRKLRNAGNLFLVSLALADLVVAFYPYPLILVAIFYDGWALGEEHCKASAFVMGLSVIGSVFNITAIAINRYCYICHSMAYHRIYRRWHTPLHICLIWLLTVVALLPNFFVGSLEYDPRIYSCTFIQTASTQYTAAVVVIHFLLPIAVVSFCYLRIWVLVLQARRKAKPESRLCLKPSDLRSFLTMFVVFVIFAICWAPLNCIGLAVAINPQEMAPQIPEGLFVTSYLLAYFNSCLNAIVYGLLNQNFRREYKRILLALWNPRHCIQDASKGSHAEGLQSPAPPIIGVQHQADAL
- assay-remarks: Activation of human MT2 receptor in receptor-expressing HEK293 cells (intracellular Ca2+, FLIPR)
- condition-set: HEK293 cells stably expressing human MT2 and Gq/i chimeric G-protein; intracellular Ca2+ by FLIPR
- Method: (1) Isolation of Human MT1 and MT2 Receptor and Construction of Expression Vector […] The respective stably expressing cells were dispensed into 96-well poly-D-lysine-coated plates (Falcon Co.) to 40,000 cells/well the day before the experiment, and incubated overnight in a DMEM (Invitrogen, Inc.) medium including 10% FBS at 37° C. and 5% CO2. […] At this time, a change in the intracellular Ca^2+ concentrations was measured. […]
pEC50: −log10 of the molar value.

- molecule: "CNC(=O)c1[nH]c2ccc(OC)nc2c1CCNC(=O)C(F)F"
  pEC50: 7.37
- molecule: "CNC(=O)c1[nH]c2cc(Cl)c(OC)cc2c1CCNC(C)=O"
  pEC50: 7.92
- molecule: "CCCC(=O)NCCc1c(C(=O)NC)[nH]c2ccc(OC)cc12"
  pEC50: 7.51
- molecule: "CNC(=O)c1[nH]c2ccc(OC)cc2c1CCNC(C)=O"
  pEC50: 7.59
- molecule: "CNC(=O)c1[nH]c2cc(F)c(OC)cc2c1CCNC(=O)C(F)F"
  pEC50: 7.77
- molecule: "CNC(=O)c1[nH]c2ccc(OC)cc2c1CCNC(=O)C(F)F"
  pEC50: 7.55
- molecule: "CNC(=O)c1[nH]c2c(F)cc(OC)cc2c1CCNC(=O)C(F)F"
  pEC50: 8.04
- molecule: "CNC(=O)c1[nH]c2cc(F)c(OC)cc2c1CCNC(C)=O"
  pEC50: 7.24
- molecule: "CCC(=O)NCC[C@@H]1CCc2ccc3c(c21)CCO3 [Ramelteon, reference compound]"
  pEC50: 8.96
- molecule: "CCCC(=O)NCCc1c(C(=O)NC)[nH]c2cc(F)c(OC)cc12"
  pEC50: 7.96
- molecule: "CNC(=O)NCCc1c(C(=O)NC)[nH]c2ccc(OC)cc12"
  pEC50: 7.72
- molecule: "CCC(=O)NCCc1c(C(=O)NC)[nH]c2cc(F)c(OC)cc12"
  pEC50: 7.74
- molecule: "CCCC(=O)NCCc1c(C(=O)NC)[nH]c2cc(Cl)c(OC)cc12"
  pEC50: 8.36
